# Tested on: JEG-3
# test: Primary qHTS to identify gynecologic anti-cancer compounds using libraries of approved drugs and bioactive compounds (AID 1345084); also: nearly all actives have a fitted effect of over 55% in size
# assay_setup: Gynecologic cancer cell panel viability, ATPlite luminescence, 48 h; series mostly up to 57.5 µM
Results filed as inconclusive are left out. Activity calls are given as the source filed them. Calls follow the shape of the dose curve; as a rule, active = well fitted cell-killing curve with a large enough effect; inconclusive = small, poorly fitted or top-dose-only effect, or effect the other way; inactive = flat fitted curve, though single readings scatter.
Classes used: active, inactive

INSERT INTO assay_data (compound, class_name) VALUES
  ('CN(CCOc1ccc(CC2SC(=O)NC2=O)cc1)c1ccccn1 (stereo not drawn)', 'inactive'),
  ('Cc1nnc(NS(=O)(=O)c2ccc(N)cc2)s1', 'inactive'),
  ('NS(=O)(=O)c1cc2c(cc1Cl)NC(C(Cl)Cl)NS2(=O)=O (stereo not drawn)', 'inactive'),
  ('CCOCC(O)COc1ccc(NC(=O)CC[S+](C)C)cc1 (stereo not drawn)', 'inactive'),
  ('O=P(O)(O)C(O)(Cc1cccnc1)P(=O)(O)O', 'inactive'),
  ('CC(C)(C)NC(=O)[C@H]1CC[C@H]2[C@@H]3CC[C@H]4NC(=O)C=C[C@]4(C)[C@H]3CC[C@]12C', 'inactive'),
  ('Nc1nc(=S)c2[nH]cnc2[nH]1', 'active'),
  ('Nc1ccc(S(=O)(=O)Nc2ccccn2)cc1', 'inactive'),
  ('CCCOc1ccc(C(=O)OCCN(CC)CC)cc1N', 'inactive'),
  ('CCN[C@H]1C[C@H](C)S(=O)(=O)c2sc(S(N)(=O)=O)cc21', 'inactive'),
  ('COc1nc(N)nc2c1ncn2[C@@H]1O[C@H](CO)[C@@H](O)[C@@H]1O', 'inactive'),
  ('OC(Cn1cncn1)(Cn1cncn1)c1ccc(F)cc1F', 'inactive'),
  ('O=C(NCC1CN(c2ccc(N3CCOCC3=O)cc2)C(=O)O1)c1ccc(Cl)s1 (stereo not drawn)', 'inactive'),
  ('CCCc1nc(C)c2c(=O)[nH]c(-c3cc(S(=O)(=O)N4CCN(CC)CC4)ccc3OCC)nn12', 'inactive'),
  ('O=C(N[C@H](CO)[C@H](O)c1ccc([N+](=O)[O-])cc1)C(Cl)Cl', 'inactive'),
  ('CN(C)CCc1c[nH]c2ccc(C[C@H]3COC(=O)N3)cc12', 'inactive'),
  ('O=C(O)c1cc(=O)[nH]c(=O)[nH]1', 'inactive'),
  ('CN1CCN(c2c(F)cc3c(=O)c(C(=O)O)cn4c3c2OCN4C)CC1', 'inactive'),
  ('O=S(=O)(O)CCS', 'inactive'),
  ('NC(=O)c1cccnc1', 'inactive'),
  ('CCCN[C@H]1CCc2nc(N)sc2C1', 'inactive'),
  ('Cc1ccnc2c1NC(=O)c1cccnc1N2C1CC1', 'inactive'),
  ('CC(C)C[C@H](NC(=O)[C@H](CCc1ccccc1)NC(=O)CN1CCOCC1)C(=O)N[C@@H](Cc1ccccc1)C(=O)N[C@@H](CC(C)C)C(=O)[C@@]1(C)CO1', 'inactive');

---

# Test system: HB3
# test: qHTS profiling for inhibitors of Plasmodium falciparum proliferation (AID 504749); also: nearly all actives have a fitted effect of over 60% in size
# assay_setup: P. falciparum in erythrocytes, SYBR Green DNA, 72 h; series mostly up to 28.7 µM
Results filed as inconclusive are left out. The source made the active and inactive calls. The call rests on the fitted dose curve; in most records, active means well fitted inhibition curve with a large enough effect; inconclusive means small, poorly fitted or top-dose-only effect; inactive means flat fitted curve, though single readings scatter.
Classes used: 1 (yes) for active, 0 (no) for inactive

INSERT INTO results (compound, class_name) VALUES
  ('C[C@@H](NCCCc1cccc(C(F)(F)F)c1)c1cccc2ccccc12', '1 (yes)'),
  ('CCOC(=O)c1ccc(OC(=O)CCCCCN=C(N)N)cc1', '1 (yes)'),
  ('Nc1nc(N)nc(-c2cc(Cl)ccc2Cl)n1', '0 (no)'),
  ('Nc1nc(N)c2nc(CNc3ccc(C(=O)NC(CCC(=O)O)C(=O)O)cc3)cnc2n1 (stereo unspecified)', '0 (no)'),
  ('CCN(C)C(=O)Oc1cccc([C@H](C)N(C)C)c1', '0 (no)'),
  ('CCc1cc(C(N)=S)ccn1', '0 (no)'),
  ('COC(=O)Nc1nc2ccc(Sc3ccccc3)cc2[nH]1', '0 (no)'),
  ('CC[C@H](C)C(=O)O[C@H]1C[C@@H](C)C=C2C=C[C@H](C)[C@H](CC[C@@H]3C[C@@H](O)CC(=O)O3)[C@H]21', '0 (no)'),
  ('CC1=CC(=O)c2ccccc2C1=O', '0 (no)'),
  ('Cc1noc(NS(=O)(=O)c2ccc(N)cc2)c1C', '0 (no)'),
  ('COc1cc(NS(=O)(=O)c2ccc(N)cc2)nc(OC)n1', '0 (no)');

---

# test: Drug repurposing screens with cells derived from glioblastoma tumor samples (AID 1345199); also: % is scaled to controls: 0 for no effect and ±100 for the full control effect; nearly all actives have a fitted effect of over 40% in size
# assay_setup: GBM patient neurospheres viability, ATP luminescence, 48 h; at 46.1 µM (top of the series); tumour line C
Records with an inconclusive call do not appear.
observable: activity, negative = cell killing (%)

INSERT INTO measurements (molecule, observable, reported_measurement) VALUES
  ('CCOc1cc(N)c(Cl)cc1C(=O)NCC1CN(Cc2ccc(F)cc2)CCO1 (stereo not drawn)', 'activity, negative = cell killing', 4.16),
  ('CN(Cc1cc(Br)cc(Br)c1N)C1CCCCC1', 'activity, negative = cell killing', -4.61),
  ('CCCc1cc(C(N)=S)ccn1', 'activity, negative = cell killing', 5.43),
  ('COC(=O)Nc1nc2ccc(S(=O)c3ccccc3)cc2[nH]1 (stereo not drawn)', 'activity, negative = cell killing', -3.75),
  ('COc1ncnc(NS(=O)(=O)c2ccc(N)cc2)c1OC', 'activity, negative = cell killing', -21.2),
  ('C[C@]12C=CC(=O)C=C1CC[C@@H]1[C@@H]2C(=O)C[C@@]2(C)[C@H]1CC[C@]2(O)C(=O)CO', 'activity, negative = cell killing', -7.06),
  ('CN(C)CCc1c[nH]c2ccc(CS(=O)(=O)N3CCCC3)cc12', 'activity, negative = cell killing', -0.0757),
  ('Cc1oc(=O)oc1CN1CCN(c2cc3c(cc2F)c(=O)c(C(=O)O)c2n3C(C)S2)CC1 (stereo not drawn)', 'activity, negative = cell killing', -0.513),
  ('CNNCc1ccc(C(=O)NC(C)C)cc1', 'activity, negative = cell killing', -14.6),
  ('CCCCCCNC(=O)n1cc(F)c(=O)[nH]c1=O', 'activity, negative = cell killing', -20.6),
  ('CNC1CCCN(c2c(F)cc3c(=O)c(C(=O)O)cn(C4CC4)c3c2OC)C1 (stereo not drawn)', 'activity, negative = cell killing', -5.21),
  ('O=c1cc(O)c(Cl)c[nH]1', 'activity, negative = cell killing', -29.9),
  ('Cc1nnc(NS(=O)(=O)c2ccc(N)cc2)s1', 'activity, negative = cell killing', 5.44),
  ('Cc1ccnc2c1NC(=O)c1cccnc1N2C1CC1', 'activity, negative = cell killing', -3.33),
  ('CCN(C)C(=O)Oc1cccc([C@H](C)N(C)C)c1', 'activity, negative = cell killing', -30),
  ('CN(C)CCc1c[nH]c2ccc(C[C@H]3COC(=O)N3)cc12', 'activity, negative = cell killing', 4.56),
  ('CCC(=O)O[C@]1(C(=O)CCl)[C@@H](C)C[C@H]2[C@@H]3CCC4=CC(=O)C=C[C@]4(C)[C@@]3(F)[C@@H](O)C[C@@]21C', 'activity, negative = cell killing', 10.1),
  ('CNS(=O)(=O)Cc1ccc2[nH]cc(CCN(C)C)c2c1', 'activity, negative = cell killing', 0.932),
  ('N[C@@H](C(=O)N[C@@H]1C(=O)N2C(C(=O)O)=C(Cl)CS[C@H]12)c1ccccc1', 'activity, negative = cell killing', 7.75),
  ('COc1ccc2c(c1)c(CC(=O)OCC(=O)O)c(C)n2C(=O)c1ccc(Cl)cc1', 'activity, negative = cell killing', 8.41),
  ('O=S(=O)(O)CCS', 'activity, negative = cell killing', -18),
  ('N[C@@H](Cc1ccc(O)c(O)c1)C(=O)O', 'activity, negative = cell killing', 28.9),
  ('COc1c(N2CCNC(C)C2)c(F)cc2c(=O)c(C(=O)O)cn(C3CC3)c12 (stereo not drawn)', 'activity, negative = cell killing', 14.5);

---

# test: Quantitative High-Throughput drug screen in 47 multiple myeloma cell lines against the NCATS MIPE library collection: Delta47_JCRB cell viability assay (AID 1918925; also: nearly all actives have a fitted effect of over 45% in size)
# assay_setup: Delta47 myeloma viability, CellTiter-Glo ATP, 48 h; series mostly up to 45.8 µM
Inconclusive results are not listed. Calls of active or inactive are those of the source. Calls follow the shape of the dose curve; as a rule, active = well fitted cell-killing curve with a large enough effect; inconclusive = small, poorly fitted or top-dose-only effect, or effect the other way; inactive = no such curve, though single readings can be large or run the other way.
Classes used: active, inactive

INSERT INTO measurements (molecule, class_name) VALUES
  ('CCCCc1oc2ccc(NS(C)(=O)=O)cc2c1C(=O)c1ccc(OCCCN(CCCC)CCCC)cc1', 'active'),
  ('NC(=O)N1c2ccccc2CC(=O)c2ccccc21', 'inactive'),
  ('COc1nc(N)nc2c1ncn2[C@@H]1O[C@H](CO)[C@@H](O)[C@@H]1O', 'inactive'),
  ('Nc1nc(N)c2nc(CNc3ccc(C(=O)NC(CCC(=O)O)C(=O)O)cc3)cnc2n1 (stereo unspecified)', 'inactive'),
  ('CC1=CC(=O)c2ccccc2C1=O', 'active'),
  ('CC1=NN(c2ccccc2)C(=O)C1', 'inactive'),
  ('Nc1nc(N)nc(-c2cc(Cl)ccc2Cl)n1', 'inactive'),
  ('C[C@@H]1C[C@H]2[C@@H]3CCC4=CC(=O)C=C[C@]4(C)[C@@]3(Cl)[C@@H](O)C[C@]2(C)[C@@]1(OC(=O)c1ccco1)C(=O)CCl', 'active'),
  ('Cn1c(=O)c2c(ncn2CC(O)CO)n(C)c1=O (stereo unspecified)', 'inactive'),
  ('COc1cccc(N(C)C(=S)Oc2ccc3c(c2)CCCC3)n1', 'inactive'),
  ('COC(=O)Nc1nc2ccc(Sc3ccccc3)cc2[nH]1', 'active');
